# protocol_notes: Cytotoxicity against uninfected human C8166 cells by XTT-formazan method
# Assay type: cell-based
# condition_notes: read-out: TC50 (the source's name)
As shown below, each of these compounds has a reported CC50 value.

chemical_structure=Cc1cn([C@H]2C[C@H](N=[N+]=[N-])[C@@H](CO)O2)c(=O)[nH]c1=O result_value="> 1000 µg/mL"
chemical_structure=COc1cc(O[C@@H]2O[C@H](CO)[C@@H](O)[C@H](O)[C@H]2O)c2c(O)c3c(=O)oc(C)cc3c(OC)c2c1 result_value="160 µg/mL"
chemical_structure=COc1cc(O[C@@H]2O[C@H](CO[C@@H]3O[C@H](CO)[C@@H](O)[C@H](O)[C@H]3O)[C@@H](O)[C@H](O)[C@H]2O)c2c(O)c3c(=O)oc(C)cc3c(OC)c2c1 result_value="150 µg/mL"
chemical_structure=COc1cc(O[C@@H]2O[C@H](CO[C@@H]3O[C@@H](C)[C@H](O)[C@@H](O)[C@H]3O)[C@@H](O)[C@H](O)[C@H]2O)c2c(O)c3c(=O)oc(C)cc3c(OC)c2c1 result_value="100 µg/mL"

# CC50 lookup, item COc1cc(O[C@@H]2O[C@H](CO[C@@H]3OC[C@H](O)[C@H](O)[C@H]3O)[C@@H](O)[C@H](O)[C@H]2O)c2c(O)c3c(=O)oc(C)cc3c(OC)c2c1
160 µg/mL
